target: tau 2N4R full-length monomer, WT (UniProt P10636-8 1-441); experiment: BLI; apparent Kd, 2:1 model; kon 1.7e3 M-1 s-1, koff 4.2e-4 s-1; mean of 3; BLI (Octet, AR2G sensors, tau immobilized), nucleic acid 0.13-41 uM; buffer, salt, pH and temperature not given in the material; details: protein: recombinant; single strand
Sequence (P10636 other isoform, or with tags, fused parts or gaps): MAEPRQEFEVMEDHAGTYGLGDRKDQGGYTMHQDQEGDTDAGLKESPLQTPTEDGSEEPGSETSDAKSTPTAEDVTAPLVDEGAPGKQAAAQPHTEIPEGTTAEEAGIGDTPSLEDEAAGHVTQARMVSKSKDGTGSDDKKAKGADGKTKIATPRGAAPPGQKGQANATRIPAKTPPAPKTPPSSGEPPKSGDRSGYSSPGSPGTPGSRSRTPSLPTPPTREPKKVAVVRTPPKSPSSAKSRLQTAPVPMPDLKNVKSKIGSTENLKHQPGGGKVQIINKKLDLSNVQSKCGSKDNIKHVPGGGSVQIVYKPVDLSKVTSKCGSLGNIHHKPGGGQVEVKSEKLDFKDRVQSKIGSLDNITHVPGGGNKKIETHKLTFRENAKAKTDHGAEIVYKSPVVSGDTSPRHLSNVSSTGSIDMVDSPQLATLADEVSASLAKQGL
Reported Endpoint: pKd
One number for each entry, as −log10 of the molar value.

Data request: Return reported pKd; argument: UUUUUUUUUUUUUUUUUUUUUUUUUUUUUUUUUUUUUUUU (ssRNA) [PolyU 40-mer RNA]
Data returned: 6.60
